Test system: SR leukemia
Assay: NCI-60 one-dose screen, 48 h
Conditions: 10 µM unless noted
Description: Growth inhibition of the SR human tumor cell line is measured as a screen for anti-cancer activity. Cells are grown in 96 well plates and exposed to the test compound for 48 hours. Compounds are tested at a single concentration, which is 10^-5 M for most compounds. The reported endpoint is percent growth (GI% or GIPRCNT), where numbers from 0 - 100% represent growth inhibition, and numbers from -100% - 0 represent cell death. For example, a value of 40 represents 60% growth inhibition. […]
About 83,000 compounds went through this panel and 20% of them were active in at least one assay; those are over-represented in the sample as a whole. Calls of active or inactive are those of the source. How the source made its calls: active means growth percent below 10; inactive means the rest.
Answer with one of the outcomes true (active), false (inactive)

Incoming: Which outcome did this test record for the molecule CC1(C)CC[C@]23CC[C@]4(C)[C@H](CC[C@@H]5[C@@]6(C)C/C(=C/O)C(=O)C(C)(C)[C@@H]6CC[C@]54C)[C@H]2[C@H]1OC3 ?
Outgoing: false

Incoming: Which outcome did this test record for the molecule O=C(Nc1nc(Cl)nc(Nc2ccc(N3CCOCC3=O)cc2)n1)c1ccc(Cl)s1 ?
Outgoing: true

###

test system: HS 578T breast; experiment: NCI-60 one-dose screen, 48 h; conditions: 10 µM unless noted
About 83,000 compounds went through this panel and 20% of them were active in at least one assay; those are over-represented in the sample as a whole. Active and inactive are the calls of the source. Rule for the calls: active = growth percent below 10; inactive = the rest.
Answer with one of the outcomes active, inactive

INSERT INTO assay_data (compound, assigned_class) VALUES
  ('CCOC(=O)NCCCC(=O)NCCc1ccccc1', 'inactive'),
  ('COc1cc2c(cc1-c1c(C)noc1C)ncc1nc(CN3CCOCC3)n([C@H](C)COC(F)F)c12', 'inactive'),
  ('CC/C(=C(/c1ccc(O)cc1)c1ccc(OCCN2CCCCC2)cc1)c1ccc(OC)cc1', 'inactive'),
  ('CS(=O)(=O)Nc1cc(-c2ccc3ncnc(Nc4ccc5c(cnn5Cc5ccncc5)c4)c3c2)cnc1Cl', 'active');

Incoming: Which outcome did this test record for the compound COC(=O)[C@@]1(C)CC[C@]2(C)CC[C@]3(C)C4=CC=C5C(=CC(=O)C(O)=C5C)[C@]4(C)[C@@H](O)C[C@@]3(C)[C@@H]2C1 ?
Outgoing: inactive

Incoming: Which outcome did this test record for the compound C=C1C(=O)O[C@H]2[C@H]1CC/C(COC(=O)C(=O)c1c[nH]c3ccc(Cl)cc13)=C\CC[C@@]1(C)O[C@@H]21 ?
Outgoing: active

###

System: HOP-62 NSCLC
Test: NCI-60 one-dose screen, 48 h (100 = growth as untreated, 0 = no growth, -100 = all killed)
Details: 10 µM unless noted
Protocol: Growth inhibition of the HOP-62 human Non-Small Cell Lung tumor cell line is measured as a screen for anti-cancer activity. Cells are grown in 96 well plates and exposed to the test compound for 48 hours. Compounds are tested at a single concentration, which is 10^-5 M for most compounds. The reported endpoint is percent growth (GI% or GIPRCNT), where numbers from 0 - 100% represent growth inhibition, and numbers from -100% - 0 represent cell death. […]
Compounds without any hit were thinned out: in the full panel of roughly 83,000, 20% have a hit. Activity calls are given as the source filed them. Rule for the calls: active = growth percent below 10; inactive = the rest.
Known growth of a selection of compounds

Solved cases below.
INSERT INTO assay_data (mol_smiles, experimental_value) VALUES
  ('COc1cc(/C=C/C(=O)c2cccc(-n3cc(-c4ccc(Cl)cc4)[nH]c3=O)c2)ccc1O', '130% (inactive)'),
  ('CC(=O)c1sc(-c2ccc(F)cc2)cc1O', '111% (inactive)'),
  ('CCOC(=O)c1c(C)nc2ccccc2c1/C=C/c1ccc(F)cc1', '80.9% (inactive)'),
  ('CC/C(=C(\c1ccc(Cl)cc1)c1ccc(OCCN2CCCCC2)cc1)c1ccc(O)cc1', '-9.16% (active)'),
  ('CC(C)c1ccc2c(c1)CC[C@H]1[C@](C)(C(=O)OCC#CCN3CCCC3)CCC[C@]21C', '94.1% (inactive)');

Incoming: Need growth, item O=C1c2cccnc2C(=O)c2c1c(C(=O)OCCc1ccccn1)c1ccccn21
Outgoing: -79% (active)
